# measured-target: T1, DnaT (wt, full length) (Escherichia coli K12, UniProt P0A8J2 1-179)
# T1 sequence: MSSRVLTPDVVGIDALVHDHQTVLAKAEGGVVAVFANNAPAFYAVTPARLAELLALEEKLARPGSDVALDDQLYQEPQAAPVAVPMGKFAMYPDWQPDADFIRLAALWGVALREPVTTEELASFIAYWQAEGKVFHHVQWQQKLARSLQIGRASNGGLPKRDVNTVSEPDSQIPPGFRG
# test-protocol: fluorescence polarization; apparent; Hill h=1.6±0.2; Buffer A: 20 mM Tris-HCl pH 7.5, 40 mM NaCl, 5% v/v glycerol, 20 C; FPA 200 nM 5'-FAM DNA, Hill fit; EMSA 30 min at 20 C, gels in 0.5x TBE at 4 C
# run-conditions: protein: recombinant; tags: His-MBP removed by TEV; label: 5'-FAM
measured-attribute: pKd
Answers are plain numbers, as −log10 of the molar value.

Ask: Tell me pKd reported for TGTGTGTGTGTGTGTGTGTGTGTGTGTGTG (ssDNA) [5F-d(TG)15]
Result: 5.89
